Here, each record is paired with measured pIC50 data.
Biological target: PIM1 serine/threonine kinase (Homo sapiens, UniProt P11309)
Sequence (P11309 whole entry): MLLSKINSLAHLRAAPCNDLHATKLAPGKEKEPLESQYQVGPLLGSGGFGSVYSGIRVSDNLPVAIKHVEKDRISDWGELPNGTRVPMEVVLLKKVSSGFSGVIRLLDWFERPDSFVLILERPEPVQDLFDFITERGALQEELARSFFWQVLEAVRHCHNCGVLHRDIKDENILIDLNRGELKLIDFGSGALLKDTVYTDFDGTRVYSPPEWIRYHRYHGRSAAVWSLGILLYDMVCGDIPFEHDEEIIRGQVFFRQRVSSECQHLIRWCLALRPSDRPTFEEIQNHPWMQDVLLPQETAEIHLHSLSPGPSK
Assay: PIM1 serine/threonine kinase inhibitory effect
Conditions: PIM1 serine/threonine kinase activity; ATP 40 μM; 30° C., 30 minutes
Where a name gives a salt, the structure may show the parent alone.
Value format note: pIC50 is -log10 of concentration (mol/L); just state the number.

Example entries and their recorded answers appear below.
> print(dat)
                                   molecule  endpoint  measured.number
1  C[C@H](Nc1cc(-c2n[nH]c(=O)o2)c(F)cc1Cl)C1CCNCC1 [Example 95, hydrochloride]     pIC50             7.96
2  O=c1[nH]nc(-c2ccc(C(F)(F)F)c(NCCC3CCNCC3)c2)o1 [Example 64, hydrochloride]     pIC50             8.05
3  NCCC1CCN(c2cc(-c3n[nH]c(=O)o3)cc3[nH]ncc23)CC1 [Example 12, dihydrochloride]     pIC50             7.89
4  C[C@H](Nc1cc(-c2n[nH]c(=O)o2)ccc1C(F)(F)F)[C@H]1C[C@@H](NCC2CC2)C1 [Example 196, hydrochloride]     pIC50             8.04
5  CC(Nc1cc(-c2n[nH]c(=O)o2)ccc1C(F)(F)F)C1CCNCC1 (centres unmarked) [Example 52, hydrochloride]     pIC50             8.38
6   O=c1[nH]nc(-c2ccc(Br)c(OCC3CCNCC3)c2)o1     pIC50             8.11
7  NCCC1CCCN(c2cc(-c3n[nH]c(=O)o3)ccc2C(F)(F)F)C1 (centres unmarked) [Example 11, hydrochloride]     pIC50             7.89

Switching to the query record.
May I ask what pIC50 has been recorded for C[C@H](Nc1cc(-c2n[nH]c(=O)o2)ccc1C#N)C1CCNCC1 [Example 85, hydrochloride] ?
8.33

====

Target: PIM2 transgenic cells (Ba/F3) (Homo sapiens, UniProt Q9P1W9)
Sequence (Q9P1W9 whole entry, change not shown): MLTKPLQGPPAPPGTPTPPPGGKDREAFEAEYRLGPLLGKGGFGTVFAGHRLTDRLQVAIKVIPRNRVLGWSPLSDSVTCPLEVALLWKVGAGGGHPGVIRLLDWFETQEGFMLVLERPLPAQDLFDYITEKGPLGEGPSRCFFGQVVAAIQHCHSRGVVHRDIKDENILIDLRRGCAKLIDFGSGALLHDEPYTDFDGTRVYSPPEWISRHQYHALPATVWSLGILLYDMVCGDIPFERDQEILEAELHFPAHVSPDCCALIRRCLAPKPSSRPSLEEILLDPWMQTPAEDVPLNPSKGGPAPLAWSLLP
Experiment: Proliferation inhibitory effect on PIM2 transgenic cells
Format: cell-based, mouse
Details: proliferation inhibition, 72 hours, Cell Counting Kit-8, read-out: PIM2 IC50
Where a name gives a salt, the structure may show the parent alone.
The label is 1.0 for GI50 below 600 nM and 0.0 for GI50 equal to or exceeding 600 nM.

> print(dat)
                                   molecule                     target.or.test.system  group
1  CC[C@@H]1CNCC[C@@H]1[C@H](C)Nc1cc(-c2n[nH]c(=O)o2)cc(F)c1C(F)(F)F  PIM2 transgenic cells (Ba/F3) (Homo sapiens, UniProt Q9P1W9)    1.0

I'd appreciate it if you could check whether C[C@H](Nc1cc(-c2n[nH]c(=O)o2)cc(F)c1C(F)(F)F)C1CCNCC1.Cl [Example 75, hydrochloride] has GI50 smaller than 600 nM.
0.0

Report whether reported GI50 is lower than 600 nM (strictly) for C[C@H](Nc1cc(-c2n[nH]c(=O)o2)ccc1C(F)(F)F)C1CCNCC1 [Example 58, hydrochloride]
0.0

Identify whether the molecule "C[C@@H]1CNCC[C@@H]1[C@H](C)Nc1cc(-c2n[nH]c(=O)o2)cc(F)c1OC(F)(F)F" records GI50 below 600 nM.
0.0

Could you please tell me whether GI50 recorded for C[C@H](Nc1cc(-c2n[nH]c(=O)o2)cc(F)c1OC(F)(F)F)C1CCNCC1.Cl [Example 202, hydrochloride] is less than 600 nM?
0.0

Hello, I'm reviewing records and need to know if GI50 of C[C@H](Nc1cc(-c2n[nH]c(=O)o2)cc(F)c1C(F)(F)F)[C@H]1CCNC[C@H]1F [Example 223, hydrochloride] is below 600 nM. Could you check?
1.0

For this molecule, is GI50 lower than 600 nM? "C[C@H](Nc1cc(-c2n[nH]c(=O)o2)cc(F)c1OC(F)(F)F)[C@H]1CCNC[C@H]1F"
1.0
